Attribution: PubChem BioAssay (NCATS)

target: Glucocorticoid receptor (Homo sapiens) (UniProt P04150); test: GR-GFP Redistribution (AID 450); conditions: U2OS GR-GFP nuclear translocation, laser cytometry, 2 h; series mostly up to 20.6 µM; further: potency means the concentration at half of the fitted maximal effect
Sequence (P04150 whole entry, looked up): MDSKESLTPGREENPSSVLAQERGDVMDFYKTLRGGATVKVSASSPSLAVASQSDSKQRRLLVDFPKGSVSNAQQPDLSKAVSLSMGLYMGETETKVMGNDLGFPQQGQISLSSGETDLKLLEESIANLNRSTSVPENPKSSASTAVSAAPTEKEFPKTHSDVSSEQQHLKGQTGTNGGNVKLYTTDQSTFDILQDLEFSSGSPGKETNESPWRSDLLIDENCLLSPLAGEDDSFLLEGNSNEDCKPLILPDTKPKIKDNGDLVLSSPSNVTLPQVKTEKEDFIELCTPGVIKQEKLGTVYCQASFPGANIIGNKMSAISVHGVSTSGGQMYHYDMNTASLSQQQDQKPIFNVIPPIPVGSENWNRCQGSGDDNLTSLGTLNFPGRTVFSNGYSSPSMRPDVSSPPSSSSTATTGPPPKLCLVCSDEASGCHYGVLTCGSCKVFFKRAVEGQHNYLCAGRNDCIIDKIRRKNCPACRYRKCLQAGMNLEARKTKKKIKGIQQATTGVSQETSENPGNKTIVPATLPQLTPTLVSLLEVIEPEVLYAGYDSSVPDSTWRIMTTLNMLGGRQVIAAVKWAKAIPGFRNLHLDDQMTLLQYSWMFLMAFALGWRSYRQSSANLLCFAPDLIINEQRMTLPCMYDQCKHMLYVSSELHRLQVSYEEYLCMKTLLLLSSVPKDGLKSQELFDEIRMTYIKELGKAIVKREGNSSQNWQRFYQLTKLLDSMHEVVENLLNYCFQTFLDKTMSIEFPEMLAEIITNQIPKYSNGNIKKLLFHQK
Active and inactive are the calls of the source.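 How the source made its calls: active means compounds whose dose series gives a full or clear partial fitted curve of increased nuclear translocation; inconclusive means weak partial curve or effect only at the top dose; inactive means no dose-dependent translocation response.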
RECORDED ENDPOINT: Potency

CCOP(=O)(c1ccccc1)c1nc(-c2ccccc2C)oc1N1CCCCC1 (configuration not stated)    > 20.6 µM (inactive)

Query: What value of Potency on Glucocorticoid receptor (Homo sapiens) (UniProt P04150) does `CC(C)Oc1ccc(Cc2c(O)nc(NCCCN(C)C)[nH]c2=O)cc1` have?
Result: > 20.6 µM (inactive)

----------
system: 7G8; assay: qHTS profiling for inhibitors of Plasmodium falciparum proliferation (AID 504749); further: nearly all actives have a fitted effect of over 60% in size; conditions: P. falciparum in erythrocytes, SYBR Green DNA, 72 h; series mostly up to 28.7 µM
Inconclusive results are not listed. The source made the active and inactive calls. Calls come from the whole dose curve; as a rule, active = well fitted inhibition curve with a large enough effect; inconclusive = small, poorly fitted or top-dose-only effect; inactive = flat fitted curve, though single readings scatter.
Answer with one of the outcomes given here: YES = active, NO = inactive

Please review the entries below; each comes with its answer.
CC1OC(OC2C(O)CC(OC3C(O)CC(OC4CCC5(C)C(CCC6C5CCC5(C)C(C7=CC(=O)OC7)CCC65O)C4)OC3C)OC2C)CC(O)C1O (centres undefined)    YES
NC(=O)NC(CCC(=O)O)C(=O)O (centres undefined)    NO
CC(=O)N[C@H]1[C@H](O[C@@H]2c3ccc(c(Cl)c3)Oc3cc4cc(c3O[C@@H]3O[C@H](CO)[C@@H](O)[C@H](O)C3C)Oc3ccc(cc3Cl)C[C@H]3NC(=O)[C@@H](N)c5ccc(O)c(c5)Oc5cc(O)cc(c5)[C@H](NC3=O)C(=O)N[C@H]4C(=O)N[C@H]3C(=O)N[C@@H]2C(=O)N[C@@H](C(=O)O)c2cc(O)cc(O[C@H]4O[C@H](CO)[C@@H](O)C(O)[C@@H]4O)c2-c2cc3ccc2O)O[C@H](CO)[C@@H](O)[C@@H]1O (some centres undefined)    NO
COc1cc2c(cc1O)CCN[C@@]21CS[C@H]2c3c(OC(C)=O)c(C)c4c(c3C(COC1=O)N1C2C2c3c(cc(C)c(OC)c3O)CC([C@@H]1O)N2C)OCO4 (some centres undefined)    YES
CNC1=CN(O)C(c2ccccc2)=c2cc(Cl)ccc2=N1    NO
CCN1CCN(C(=O)NC(C(=O)NC2C(=O)N3C(C(=O)O)=C(CSc4nnnn4C)CSC23)c2ccc(O)cc2)C(=O)C1=O (centres undefined)    NO
Nc1nc(/C(=C/CC(=O)O)C(=O)NC2C(=O)N3C(C(=O)O)=CCSC23)cs1 (centres undefined)    NO
CC(CCC(=O)O)C1CCC2C3C(=O)C[C@@H]4CC(=O)CC[C@@]4(C)C3CC(=O)[C@]12C (some centres undefined)    NO

Query: // outcome(item) with item = CC1C(=O)C(=O)C=CN1C (centres undefined)
Result: NO

Query: Which outcome was assigned to CCC1OC(=O)C[C@@H](O)[C@H](C)[C@@H](OC2OC(C)CC(N(C)C)C2O)[C@@H](CC=O)C[C@@H](C)C(=O)/C=C/[C@]2(C)OC2C1C (some centres undefined) in this test?
Result: YES

Query: Entry `CC1=C[C@@H](O)CC(C)(C)[C@@H]1/C=C/C(C)=C/C=C/C(C)=C/C=C/C=C(C)/C=C/C=C(C)/C=C/C1=C(C)C[C@H](O)CC1(C)C` : call = ?
Result: YES

Query: Tell me the assay call for O=c1[nH]c(=O)n(C2C[C@H](O)[C@@H](CO)O2)cc1C(F)(F)F (some centres undefined) please.
Result: NO

Query: Outcome? CC(=O)OC1C([N+]2(C)CCCCC2)C[C@H]2C3CC[C@H]4C[C@H](OC(C)=O)C([N+]5(C)CCCCC5)CC4(C)C3CCC12C (some centres undefined)
Result: NO

Query: How was `NC(=O)OC[C@@H]1[C@H](NC(=O)/C(=N/OCC(=O)O)c2csc(N)n2)C(=O)N1S(=O)(=O)O` classified in this test?
Result: NO
